# target.system: IRAK4 (Homo sapiens, UniProt Q9NWZ3)
# Sequence (Q9NWZ3 whole entry): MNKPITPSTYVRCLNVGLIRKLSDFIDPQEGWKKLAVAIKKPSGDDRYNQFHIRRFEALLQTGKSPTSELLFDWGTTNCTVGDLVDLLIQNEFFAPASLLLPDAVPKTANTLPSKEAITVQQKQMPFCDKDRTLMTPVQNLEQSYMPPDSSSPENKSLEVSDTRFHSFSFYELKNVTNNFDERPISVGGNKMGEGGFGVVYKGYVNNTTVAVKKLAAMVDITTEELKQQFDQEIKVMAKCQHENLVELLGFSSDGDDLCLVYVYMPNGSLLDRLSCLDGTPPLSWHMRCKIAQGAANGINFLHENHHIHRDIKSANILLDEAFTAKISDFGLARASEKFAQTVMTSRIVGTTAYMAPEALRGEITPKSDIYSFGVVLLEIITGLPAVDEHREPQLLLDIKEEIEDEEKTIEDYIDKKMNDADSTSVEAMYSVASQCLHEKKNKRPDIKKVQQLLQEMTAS
# test.protocol: Degradation of IRAK4 in THP1 cells, Western blot
# Format: cell-based
# Set-up: Degradation of IRAK4 in THP1 by compound; host or cells: THP-1
# conditions: maximum degradation rate, THP-1 cells, 24 hours of incubation; read-out: Dmax
Structures can show the parent of a compound that is named as a salt.
observed.property: Dmax

Reference set (5 entries):
[
  {
    "compound": "Cn1c(=O)n(C2CCC(=O)NC2=O)c2cccc(N3CCC(CN4CCN(c5ccc(-n6cc(NC(=O)c7cccc(C(F)(F)F)n7)c(C(N)=O)n6)cc5)CC4)C3)c21 (centres unmarked) [Compound A305]",
    "result": "40 to 60%"
  },
  {
    "compound": "NC(=O)c1nn(-c2ccc(N3CCN(CC4CC5(CCN(c6ccc(N7CCC(=O)NC7=O)cc6)CC5)C4)CC3)cc2)cc1NC(=O)c1cccc(C(F)(F)F)n1 [Compound A392]",
    "result": "40 to 60%"
  },
  {
    "compound": "NC(=O)c1nn(-c2ccc(N3CCN(C(=O)N4CCC(Cc5ccc(N6CCC(=O)NC6=O)cc5)CC4)CC3)cc2)cc1NC(=O)c1cccc(C(F)(F)F)n1 [Compound A448]",
    "result": "40 to 60%"
  },
  {
    "compound": "NC(=O)c1nn(-c2ccc(COC3CC4(CCN(CC5CCN(c6ccc(NC7CCC(=O)NC7=O)cc6F)CC5)CC4)C3)cc2)cc1NC(=O)c1cccc(C(F)(F)F)n1 (centres unmarked) [Compound A317]",
    "result": "> 60%"
  },
  {
    "compound": "Cn1c(=O)n(C2CCC(=O)NC2=O)c2cccc(N3CCC4(CC3)CC(NC(=O)c3ccc(-n5cc(NC(=O)c6cccc(C(F)(F)F)n6)c(C(N)=O)n5)cc3)C4)c21 (centres unmarked) [Compound A320]",
    "result": "> 60%"
  }
]

# per-item lookup of Dmax; items listed below
1. Cn1c(=O)n(C2CCC(=O)NC2=O)c2cccc(C#CCCN3CCN(C(=O)c4ccc(-n5cc(NC(=O)c6cccc(-c7ccn[nH]7)n6)c(S(N)(=O)=O)n5)cc4)CC3)c21 (centres unmarked) [Compound A336]
2. Cn1c(=O)n(C2CCC(=O)NC2=O)c2ccc(N3CCC(CN4CCN(c5ccc(-n6cc(NC(=O)c7cccc(C(F)(F)F)n7)c(C(N)=O)n6)cc5)CC4)CC3)cc21 (centres unmarked) [Compound A177]
3. Cn1c(=O)n(C2CCC(=O)NC2=O)c2cccc(N3CCC(CN4CCN(c5ccc(-n6cc(NC(=O)c7cccc(C(F)(F)F)n7)c(C(=O)NC7CC7)n6)cc5)CC4)CC3)c21 (centres unmarked) [Compound A369, formate]

Response given:
> 60%
> 60%
> 60%

---

# target.system: IRAK4 (Homo sapiens, UniProt Q9NWZ3)
# test.protocol: Degradation of IRAK4 in THP1 cells, Western blot
# Assay type: cell-based
# Parameters: Degradation of IRAK4 in THP1 by compound; host or cells: THP-1
# conditions: THP-1 cells, 24 hours of incubation, IRAK4 protein by Western blot; read-out: DC50
Provide the recorded DC50 for the entries that follow.

Reference set (5 entries):
[
  {
    "compound": "COc1ccc(C(=O)N2CCC(CN3CCN(C(=O)c4ccc(-n5cc(NC(=O)c6cccc(C(F)(F)F)n6)c(C(N)=O)n5)cc4)CC3)C2)cc1N1CCC(=O)NC1=O (centres unmarked)",
    "DC50": "100 to 1000 nM"
  },
  {
    "compound": "Cn1c(=O)n(C2CCC(=O)NC2=O)c2cccc(NCCN3CC4(C3)CN(C(=O)c3ccc(-n5cc(NC(=O)c6cccc(-c7ccn[nH]7)n6)c(S(N)(=O)=O)n5)cc3)C4)c21 (centres unmarked)",
    "DC50": "< 100 nM"
  },
  {
    "compound": "Cn1c(-c2ccc(N3CCC(CCN4CCN(c5ccc(-n6cc(NC(=O)c7cccc(C(F)(F)F)n7)c(C(N)=O)n6)cc5)CC4)C3)cc2)nn(C2CCC(=O)NC2=O)c1=O (centres unmarked)",
    "DC50": "< 100 nM"
  },
  {
    "compound": "NC(=O)c1nn(-c2ccc(N3CCN(C4CCC5(CC4)CN(c4ccc(N6CCC(=O)NC6=O)cc4)C5)CC3)cc2)cc1NC(=O)c1cccc(C(F)(F)F)n1",
    "DC50": "< 100 nM"
  },
  {
    "compound": "NC(=O)c1nn(-c2ccc(N3CCN(C4CCN(c5ccc(NC6CCC(=O)NC6=O)cn5)CC4)CC3)cc2)cc1NC(=O)c1cccc(C(F)(F)F)n1 (centres unmarked)",
    "DC50": "100 to 1000 nM"
  }
]

# per-item lookup of DC50; items listed below
1. Cn1c(=O)n(C2CCC(=O)NC2=O)c2cccc(N3CCC(CN4CCN(c5ccc(-n6cc(NC(=O)c7cccc(C(F)(F)F)n7)c(C(N)=O)n6)cc5)CC4)C(F)(F)C3)c21 (centres unmarked)
2. Cn1c(=O)n(C2CCC(=O)NC2=O)c2cccc(C#CCOC3CN(Cc4ccc(-n5cc(NC(=O)c6cccc(-c7ccn[nH]7)n6)c(S(N)(=O)=O)n5)cc4)C3)c21 (centres unmarked)
3. N#Cc1cccc(C(=O)Nc2cn(-c3ccc(N4CCN(CC5CCN(c6ccc(NC7CCC(=O)NC7=O)cc6F)CC5)CC4)cc3)nc2C(N)=O)n1 (centres unmarked)
4. NC(=O)c1nn(-c2ccc(CN3CCC4(CC3)CN(c3ccc5c(c3)C(=O)N(C3CCC(=O)NC3=O)C5=O)C4)cc2)cc1NC(=O)c1cccc(C(F)(F)F)n1 (centres unmarked)
5. Cn1c(=O)n(C2CCC(=O)NC2=O)c2cccc(N3CCC(CCN4CCN(c5ccc(-n6cc(NC(=O)c7cccc(C(F)(F)F)n7)c(C(N)=O)n6)cc5)CC4)CC3)c21 (centres unmarked)
6. CN(CCN1CC2CN(c3cccc4c3n(C)c(=O)n4C3CCC(=O)NC3=O)CC2C1)Cc1ccc(-n2cc(NC(=O)c3cccc(-c4ccn[nH]4)n3)c(S(N)(=O)=O)n2)cc1 (centres unmarked)

Response given:
1. < 100 nM
2. 100 to 1000 nM
3. > 1000 nM
4. 100 to 1000 nM
5. < 100 nM
6. < 100 nM

---

# target.system: IRAK4 (Homo sapiens, UniProt Q9NWZ3)
# test.protocol: Degradation of IRAK4 in THP1 cells, Western blot
# Assay type: cell-based
# Parameters: Degradation of IRAK4 in THP1 by compound; host or cells: THP-1
# conditions: maximum degradation rate, THP-1 cells, 24 hours of incubation; read-out: Dmax
observed.property: Dmax

Reference set (2 entries):
[
  {
    "compound": "NC(=O)c1nn(-c2ccc(N3CCN(C(=O)C4CN(c5cc(F)c(C6CCC(=O)NC6=O)c(F)c5)C4)CC3)cc2)cc1NC(=O)c1cccc(C(F)(F)F)n1 (stereo not drawn)",
    "Dmax": "> 60%"
  },
  {
    "compound": "N#Cc1cccc(C(=O)Nc2cn(-c3ccc(N4CCN(CC5CCN(c6ccc(NC7CCC(=O)NC7=O)cc6F)CC5)CC4)cc3)nc2C(N)=O)n1 (stereo not drawn)",
    "Dmax": "< 40%"
  }
]

Challenge: # Dmax lookup, item Cn1c(=O)n(C2CCC(=O)NC2=O)c2cccc(NCCN3CCC4(CCN(C(=O)c5ccc(-n6cc(NC(=O)c7cccc(-c8ccn[nH]8)n7)c(S(N)(=O)=O)n6)cc5)C4)C3)c21 (stereo not drawn)
Response given: > 60%

---

# Test system: IL-6
# test.protocol: Inhibition of R848-induced IL-6 release in human PBMCs, IL-6 ELISA
# Format: cell-based
# conditions: PBMC, compound 24 hours, then R848 10 µg/mL 5 hours
Provide the recorded IC50 for the entries that follow.

Reference set (5 entries):
[
  {
    "compound": "Cn1c(=O)n(C2CCC(=O)NC2=O)c2cccc(N3CCC4(CC3)CC(NCc3ccc(-n5cc(NC(=O)c6cccc(C(F)(F)F)n6)c(C(N)=O)n5)cc3)C4)c21 (stereo not drawn)",
    "IC50": "< 10 nM"
  },
  {
    "compound": "Cn1c(=O)n(C2CCC(=O)NC2=O)c2cccc(N3CCN(CCN4CCN(c5ccc(N6C=C(NC(=O)c7cccc(C(F)(F)F)n7)C(=C=O)N6)cc5)CC4)CC3)c21 (stereo not drawn)",
    "IC50": "< 10 nM"
  },
  {
    "compound": "NC(=O)c1nn(-c2ccc(N3CCN(CCC4CCN(c5ccc(NC6CCC(=O)NC6=O)cc5F)CC4)CC3)cc2)cc1NC(=O)c1cccc(C(F)(F)F)n1 (stereo not drawn)",
    "IC50": "< 10 nM"
  },
  {
    "compound": "NC(=O)c1nn(-c2ccc(N3CCN(CC4CCN(c5ccc(NC6CCC(=O)NC6=O)cc5F)CC4)CC3)cc2)cc1NC(=O)c1cccc(C(F)(F)F)n1 (stereo not drawn)",
    "IC50": "< 10 nM"
  },
  {
    "compound": "NC(=O)c1nn(-c2ccc(N3CCN(CC4CCN(c5ccc6c(c5)C(=O)N(C5CCC(=O)NC5=O)C6=O)CC4)CC3)cc2)cc1NC(=O)c1cccc(C(F)(F)F)n1 (stereo not drawn)",
    "IC50": "< 10 nM"
  }
]

# per-item lookup of IC50; items listed below
1. Cn1c(-c2ccc(N3CCC(CN4CCN(c5ccc(-n6cc(NC(=O)c7cccc(C(F)(F)F)n7)c(C(N)=O)n6)cc5)CC4)C3)cc2)nn(C2CCC(=O)NC2=O)c1=O (stereo not drawn)
2. NC(=O)c1nn(-c2ccc(N3CCN(CC4CCN(c5ccc6c(c5)C(=O)N(C5CCC(=O)NC5=O)C6=O)C4)CC3)cc2)cc1NC(=O)c1cccc(C(F)(F)F)n1 (stereo not drawn)
3. NC(=O)c1nn(-c2ccc(N3CCN(CCC4CCN(c5cccc(NC6CCC(=O)NC6=O)c5)CC4)CC3)cc2)cc1NC(=O)c1cccc(C(F)(F)F)n1 (stereo not drawn)
4. Cn1c(-c2ccc(N3CCC(CN4CCN(c5ccc(-n6cc(NC(=O)c7cccc(C(F)(F)F)n7)c(C(N)=O)n6)cc5)CC4)CC3)cc2)nn(C2CCC(=O)NC2=O)c1=O (stereo not drawn)
5. NC(=O)c1nn(-c2ccc(N3CCN(CC4CCN(c5ccc6c(c5)CN(C5CCC(=O)NC5=O)C6=O)CC4)CC3)cc2)cc1NC(=O)c1cccc(C(F)(F)F)n1 (stereo not drawn)
6. Cn1c(=O)n(C2CCC(=O)NC2=O)c2cccc(N3CCC(CN4CCN(c5ccc(-n6cc(NC(=O)c7cccc(C(F)(F)F)n7)c(C(N)=O)n6)cc5)CC4)CC3)c21 (stereo not drawn)
7. NC(=O)c1nn(-c2ccc(N3CCN(CC4CCN(c5cccc(NC6CCC(=O)NC6=O)c5)CC4)CC3)cc2)cc1NC(=O)c1cccc(C(F)(F)F)n1 (stereo not drawn)

Response given:
1. < 10 nM
2. < 10 nM
3. < 10 nM
4. 10 to 30 nM
5. < 10 nM
6. < 10 nM
7. 10 to 30 nM

The measurements presented in this section are drawn from patent EP4763839A1.
